target: human Factor VIIa (Homo sapiens); construct: with about 1% of the total amount in the proteolytically active form factor VIIa; test: Factor VIIa assay (hydrolysis of chromogenic substrate, Ki); conditions: several values in one cell = repeat determinations
Sequence (P08709 213-466 limits assumed): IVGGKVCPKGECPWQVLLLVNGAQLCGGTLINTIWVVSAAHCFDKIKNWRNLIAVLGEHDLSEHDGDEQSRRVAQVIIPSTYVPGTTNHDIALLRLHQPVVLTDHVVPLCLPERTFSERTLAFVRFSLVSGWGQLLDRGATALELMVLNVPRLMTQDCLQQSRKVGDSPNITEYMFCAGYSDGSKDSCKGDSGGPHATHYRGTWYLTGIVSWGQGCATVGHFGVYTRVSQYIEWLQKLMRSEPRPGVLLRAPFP
Sequence (P08709 61-212 limits assumed): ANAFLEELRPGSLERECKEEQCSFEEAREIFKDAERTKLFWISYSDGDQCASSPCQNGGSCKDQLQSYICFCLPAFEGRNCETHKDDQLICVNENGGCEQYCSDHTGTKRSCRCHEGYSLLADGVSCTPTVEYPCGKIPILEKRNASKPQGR
Sequence (P13726 33-251 partner limits assumed): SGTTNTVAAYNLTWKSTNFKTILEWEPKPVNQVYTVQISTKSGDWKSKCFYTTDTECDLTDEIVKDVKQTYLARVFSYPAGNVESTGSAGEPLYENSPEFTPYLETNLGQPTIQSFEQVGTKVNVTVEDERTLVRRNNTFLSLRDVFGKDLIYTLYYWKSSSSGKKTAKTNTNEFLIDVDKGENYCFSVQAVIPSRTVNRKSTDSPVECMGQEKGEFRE
observationType: pKi
FYI, pKi means -log10 of a concentration in mol per litre.

Asked: Consider the compound "COc1cc([C@@H](Nc2ccc3c(c2)C(=O)NC3)C(=O)N2CC[C@H](C(=O)O)[C@@H]2c2ccccc2S(=O)(=O)C2CC2)ccc1F" and give its measured pKi.
Given back: 7.22

Source: patent US8039506B2
